B1: Intersectin-2, residues 1129 to 1183; numbered along this chain, Q9NZM3 (parent)
chain: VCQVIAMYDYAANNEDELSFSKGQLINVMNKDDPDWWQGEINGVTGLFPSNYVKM

Variants of: B1
procedureText: abundance fitness (aPCA) (normalised: wild type 0, dead -1); higher = more abundant; growth selection in yeast, the domain comes from the species named
assaySetup: Homo sapiens
In this section we review reported abundance fitness values for a set of variants.
A bare number is all that is needed in reply.

Below, each entry is followed by its recorded abundance fitness result.
[
  {
    "macromoleculeSequence": "VCQVIAMYDYAANNEDELSFSKGQLINVMNKDDPDWWQGEINGVTGNFPSNYVKM [L47N]",
    "abundance fitness": -0.086
  },
  {
    "macromoleculeSequence": "VCQVIAMYDEAANNEDELSFSKGQLINVMNKDDPDWWQGEINGVTGLFPSNYVKM [Y10E]",
    "abundance fitness": -0.853
  },
  {
    "macromoleculeSequence": "VCQVIAMYDYAANMEDELSFSKGQLINVMNKDDPDWWQGEINGVTGLFPSNYVKM [N14M]",
    "abundance fitness": -0.016
  }
]

// returns reported abundance fitness for input VCQVIAMYDYAANNEDELSFSKGQLINVMNKDDPDWWQGEINGVTGLFPSNYVKS [M55S]
0.007

// returns reported abundance fitness for input ICQVIAMYDYAANNEDELSFSKGQLINVMNKDDPDWWQGEINGVTGLFPSNYVKM [V1I]
0.077

// returns reported abundance fitness for input VCQVIAMYDYAANNEDELSFSKGQLINVMNKDDPDWWQGEINGVFGLFPSNYVKM [T45F]
-0.051

// returns reported abundance fitness for input VCQVIAMYDYAANNEDELSFSVGQLINVMNKDDPDWWQGEINGVTGLFPSNYVKM [K22V]
-0.074

// returns reported abundance fitness for input VCQVIAMYDYAANNEYELSFSKGQLINVMNKDDPDWWQGEINGVTGLFPSNYVKM [D16Y]
0.047

// returns reported abundance fitness for input VCQVIAMYDYAGNNEDELSFSKGQLINVMNKDDPDWWQGEINGVTGLFPSNYVKM [A12G]
-0.068

// returns reported abundance fitness for input VCQVIAMYDYAMNNEDELSFSKGQLINVMNKDDPDWWQGEINGVTGLFPSNYVKM [A12M]
-0.129
